B1: tRNA (parent)
chain: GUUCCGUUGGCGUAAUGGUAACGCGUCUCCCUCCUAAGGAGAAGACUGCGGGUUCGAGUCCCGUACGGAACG

variants of: B1; assay: yeast fitness relative to wild type (ratio to wild type); higher = fitter; tRNA-Arg(CCU), competitive growth, 37 C, YPD
This sample holds only a part of the variants without activity.
measured.quantity: yeast fitness

Worked examples, 10 variants total:
>>> df
              mutation_key  result
0             C5G G6C C49A   ≤ 0.5
1           U28C A40G G52C   ≤ 0.5
2           U28G C46G C61U   ≤ 0.5
3           A20U G38C G68U   ≤ 0.5
4      C22G C31G A57C A69C   ≤ 0.5
5           C30G A42G A45G   ≤ 0.5
6  U8C C27A A40G C46G C62G   ≤ 0.5
7                 U8A C60A   ≤ 0.5
8      U16C A21C A37G C55A   ≤ 0.5
9            C4U A21U C55U   ≤ 0.5

Consider C22G C30G U47C U54C . Its measured yeast fitness is ≤ 0.5

Query C4G C11G C49U C60U yields yeast fitness of ≤ 0.5

# variant C5U A14C A70U ; its yeast fitness = ≤ 0.5

For record U19C A37C C62A U64C the listed yeast fitness is ≤ 0.5

Summary for this variant, U3C A15G C30G G56A G63C G67A : yeast fitness is ≤ 0.5

Consider G6A G9C C31U C62U G68C . Its measured yeast fitness is ≤ 0.5

According to the records, this variant U19A C24U C29A U54A displays yeast fitness of ≤ 0.5

Field yeast fitness (entry C46A A57C C60A ) reads ≤ 0.5

response.value for C4U G10A C11G A20G C27G A65U (field: yeast fitness) = ≤ 0.5
